Assay: Drug metabolism in CTX-M-1-deficient Escherichia coli DH5[alpha] assessed as compound hydrolysis at 100 uM incubated for 60 mins by 1H-NMR spectra analysis
Format: ADME
Settings: CTX-M-1-deficient Escherichia coli DH5alpha cells, read-out: Drug metabolism
quantity-kind: metabolised at 1 h, 100 µM (%)
Use % as the unit, but write only the number.

Which metabolised at 1 h, 100 µM value belongs to CC(=O)OCC1=C(C(=O)O)N2C(=O)[C@@H](NC(=O)Cc3ccc(-c4ccccc4)cc3)[C@H]2SC1 ?
0

Please give the result for CC(=O)OCC1=C(C(=O)O)N2C(=O)[C@@H](NC(=O)Cc3ccc(Oc4ccccc4)cc3)[C@H]2SC1 too.
0

As a next step, examine the compound that follows.
Which metabolised at 1 h, 100 µM value belongs to CC(=O)OCC1=C(C(=O)O)N2C(=O)[C@@H](NC(=O)Cc3cccs3)[C@H]2SC1 ?
0

* * *

Reported MIC values are given for each entry in this list.
Tested on: Escherichia coli
Test: Growth inhibition of ciprofloxacin-susceptible Escherichia coli CFT073 harboring pSU18 incubated for 18 hrs by broth microdilution method
Format: organism-based
Conditions: in vivo
Use µM as the unit, but write only the number.

Which MIC value belongs to CC(=O)OCC1=C(C(=O)O)N2C(=O)[C@@H](NC(=O)Cc3ccccc3)[C@H]2SC1 [CEFALORAM] ?
50

Please give the result for CCCC(=O)N[C@@H]1C(=O)N2C(C(=O)O)=C(COC(C)=O)CS[C@H]12 too.
200

Please give the result for CC(=O)OCC1=C(C(=O)O)N2C(=O)[C@@H](NC(=O)Cc3ccc(Cl)cc3)[C@H]2SC1 too.
100

Please give the result for CC(=O)OCC1=C(C(=O)O)N2C(=O)[C@@H](NC(=O)Cc3ccsc3)[C@H]2SC1 too.
50

Please give the result for CC(=O)OCC1=C(C(=O)O)N2C(=O)[C@@H](NC(=O)Cc3ccc(C)cc3)[C@H]2SC1 too.
100

Please give the result for CC(=O)N[C@@H]1C(=O)N2C(C(=O)O)=C(COC(C)=O)CS[C@H]12 too.
400

Next:
Which MIC value belongs to CC(=O)OCC1=C(C(=O)O)N2C(=O)[C@@H](NC(=O)Cc3ccc(Br)cc3)[C@H]2SC1 ?
100

Please give the result for CC(=O)OCC1=C(C(=O)O)N2C(=O)[C@@H](NC(=O)Cc3cccs3)[C@H]2SC1 [CEPHALOTHIN] too.
25

Please give the result for CCCCCC(=O)N[C@@H]1C(=O)N2C(C(=O)O)=C(COC(C)=O)CS[C@H]12 too.
100

* * *

Reported MIC values are given for each entry in this list.
Tested on: Escherichia coli
Test: Growth inhibition of Escherichia coli CFT073 harboring pSU18 and CTX-M-1 incubated for 18 hrs by broth microdilution method
Details: CFT073, 18 h

# count of solved cases: 2
Which MIC value belongs to CC(=O)OCC1=C(C(=O)O)N2C(=O)[C@@H](NC(=O)c3ccccc3)[C@H]2SC1 ?
> 400 µM

Please give the result for CC(=O)OCC1=C(C(=O)O)N2C(=O)[C@@H](NC(=O)Cc3cc(Br)cs3)[C@H]2SC1 too.
> 400 µM

As a next step, examine the compound that follows.
Which MIC value belongs to CC(=O)OCC1=C(C(=O)O)N2C(=O)[C@@H](NC(=O)Cc3cccc(Oc4ccccc4)c3)[C@H]2SC1 ?
> 400 µM

* * *

Test: Prodrug activation in Escherichia coli CFT073 harboring CTX-M-1 assessed as bacterial CTX-M-1-mediated compound hydrolysis incubated for 1 hr by 1H-NMR analysis
Details: bacteria
// classify: if (Drug metabolism < 20%) y else n

Is Drug metabolism strictly under 20% for the entry CCCCCC(=O)N[C@@H]1C(=O)N2C(C(=O)O)=C(COC(C)=O)CS[C@H]12 ?
y

Next:
Is Drug metabolism strictly under 20% for the entry CC(=O)OCC1=C(C(=O)O)N2C(=O)[C@@H](NC(=O)Cc3ccccc3)[C@H]2SC1 ?
y

Please give the result for CC(=O)OCC1=C(C(=O)O)N2C(=O)[C@@H](NC(=O)c3ccccc3)[C@H]2SC1 too.
n

* * *

Reported Drug metabolism values are given for each entry in this list.
Experiment: Prodrug activation in Escherichia coli CFT073 harboring CTX-M-1 assessed as bacterial CTX-M-1-mediated compound hydrolysis incubated for 1 hr by 1H-NMR analysis
Settings: bacteria
Please answer using a numeric value trailed by its unit.

Which Drug metabolism value belongs to CCCC(=O)N[C@@H]1C(=O)N2C(C(=O)O)=C(COC(C)=O)CS[C@H]12 ?
25%

Please give the result for CC(=O)OCC1=C(C(=O)O)N2C(=O)[C@@H](NC(=O)Cc3ccsc3)[C@H]2SC1 too.
32%

Please give the result for COc1ccc(C(=O)N[C@@H]2C(=O)N3C(C(=O)O)=C(COC(C)=O)CS[C@H]23)cc1 too.
3%

Please give the result for CC(=O)OCC1=C(C(=O)O)N2C(=O)[C@@H](NC(=O)Cc3ccc(C)cc3)[C@H]2SC1 too.
7%

Please give the result for CC(=O)OCC1=C(C(=O)O)N2C(=O)[C@@H](NC(=O)Cc3ccc(Br)cc3)[C@H]2SC1 too.
9%

Please give the result for CC(=O)N[C@@H]1C(=O)N2C(C(=O)O)=C(COC(C)=O)CS[C@H]12 too.
67%

Please give the result for CC(=O)OCC1=C(C(=O)O)N2C(=O)[C@@H](NC(=O)Cc3ccc(Cl)cc3)[C@H]2SC1 too.
14%

Please give the result for CC(=O)OCC1=C(C(=O)O)N2C(=O)[C@@H](NC(=O)Cc3cccc(C)c3)[C@H]2SC1 too.
16%

Next:
Which Drug metabolism value belongs to CC(=O)OCC1=C(C(=O)O)N2C(=O)[C@@H](NC(=O)Cc3ccc(-c4ccccc4)cc3)[C@H]2SC1 ?
4%

* * *

System: Escherichia coli
Experiment: Growth inhibition of ciprofloxacin-susceptible Escherichia coli DH5[alpha] incubated for 18 hrs by broth microdilution method
Format: organism-based
Settings: in vivo
quantity-kind: MIC (µM)
Use µM as the unit, but write only the number.

# count of solved cases: 2
Entry CC(=O)OCC1=C(C(=O)O)N2C(=O)[C@@H](NC(=O)Cc3ccc(F)cc3)[C@H]2SC1 , system Escherichia coli: what MIC was measured?
100

Please give the result for CC(=O)OCC1=C(C(=O)O)N2C(=O)[C@@H](NC(=O)Cc3ccccc3)[C@H]2SC1 too.
50

Next:
Entry CC(=O)OCC1=C(C(=O)O)N2C(=O)[C@@H](NC(=O)Cc3cccs3)[C@H]2SC1 , system Escherichia coli: what MIC was measured?
12.5

Please give the result for CCCC(=O)N[C@@H]1C(=O)N2C(C(=O)O)=C(COC(C)=O)CS[C@H]12 too.
100

Please give the result for CC(=O)N[C@@H]1C(=O)N2C(C(=O)O)=C(COC(C)=O)CS[C@H]12 too.
200

Please give the result for CC(=O)OCC1=C(C(=O)O)N2C(=O)[C@@H](NC(=O)Cc3cc(Br)cs3)[C@H]2SC1 too.
50

Please give the result for CC(=O)OCC1=C(C(=O)O)N2C(=O)[C@@H](NC(=O)Cc3ccc(Br)cc3)[C@H]2SC1 too.
200

Please give the result for CCCCCC(=O)N[C@@H]1C(=O)N2C(C(=O)O)=C(COC(C)=O)CS[C@H]12 too.
200

* * *

Tested on: Escherichia coli
Assay: Growth inhibition of ciprofloxacin-susceptible Escherichia coli CFT073 harboring pSU18 incubated for 18 hrs by broth microdilution method
Format: organism-based
Details: in vivo
quantity-kind: MIC (µM)
Use µM as the unit, but write only the number.

# count of solved cases: 2
Which MIC value belongs to CC(=O)OCC1=C(C(=O)O)N2C(=O)[C@@H](NC(=O)Cc3ccc(F)cc3)[C@H]2SC1 ?
100

Please give the result for CC(=O)OCC1=C(C(=O)O)N2C(=O)[C@@H](NC(=O)Cc3cccc(C)c3)[C@H]2SC1 too.
200

Next:
Which MIC value belongs to CC(=O)OCC1=C(C(=O)O)N2C(=O)[C@@H](NC(=O)Cc3cc(Br)cs3)[C@H]2SC1 ?
50

* * *

Tested on: Escherichia coli
Assay: Growth inhibition of ciprofloxacin-susceptible Escherichia coli DH5[alpha] incubated for 18 hrs by broth microdilution method
Type: organism-based
Settings: in vivo
quantity-kind: MIC
Please answer using a numeric value trailed by its unit.

# count of solved cases: 2
Which MIC value belongs to CC(=O)OCC1=C(C(=O)O)N2C(=O)[C@@H](NC(=O)Cc3cccc(C)c3)[C@H]2SC1 ?
200 µM

Please give the result for CC(=O)OCC1=C(C(=O)O)N2C(=O)[C@@H](NC(=O)[C@H](C)c3ccccc3)[C@H]2SC1 too.
400 µM

Next:
Which MIC value belongs to CC(=O)OCC1=C(C(=O)O)N2C(=O)[C@@H](NC(=O)Cc3ccc(Cl)cc3)[C@H]2SC1 ?
100 µM

Please give the result for CC(=O)OCC1=C(C(=O)O)N2C(=O)[C@@H](NC(=O)Cc3ccsc3)[C@H]2SC1 too.
50 µM

Please give the result for CC(=O)OCC1=C(C(=O)O)N2C(=O)[C@@H](NC(=O)Cc3ccc(C)cc3)[C@H]2SC1 too.
100 µM
